Protocol summary: Stability of mini-G proteins in detergent by native DSF
Type: physicochemical
Conditions used: 2 mg/ml, onset of scattering
Experimental: For constructs see FIGS. 29 and 35-37. […] The stability of mini-G proteins was also determined in detergent using native DSF (NanoTemper Prometheus). […] Samples were incubated on ice (minimum 30 min) prior to heating on the Prometheus (20% excitation, 15° C.-85° C., rate of 2.0° C./min) and the onset of scattering determined.
Reported metric: Stability in detergent measured by native DSF, 0.1% DDM (°C)

molecule="Mini-Golf6: mini-G protein of Golf, 7 point mutations and 3 deletions from mini-Gs; SEQ ID NO:105 (protein, Mini-Golf6) MGHHHHHHENLYFQGIEKQLQKERLAYKATHRLLLLGADNSGKSTIVKQMRILHGGSGGSGGTSGIFETRFQVDKVNFHMFDVGGQRDERRKWIQCFNDVTAIIYVADCSDYNRLRESLDDFESIWNNRWLRTISIILFLNKQDMLAEKVLAGKSKIEDYFPEYANYTVPEDATPDAGEDPKVTRAKFFIRDLFLRISTATGDGKHYCYPHFTCAVDTENARRIFNDCRDIIQRMHLKQYELL" numeric_value=37.4
